Taken from BindingDB's records for doi:10.1021/jm060955d.

Target: Dipeptidyl peptidase 4 (Homo sapiens, UniProt P27487)
Sequence (P27487 whole entry): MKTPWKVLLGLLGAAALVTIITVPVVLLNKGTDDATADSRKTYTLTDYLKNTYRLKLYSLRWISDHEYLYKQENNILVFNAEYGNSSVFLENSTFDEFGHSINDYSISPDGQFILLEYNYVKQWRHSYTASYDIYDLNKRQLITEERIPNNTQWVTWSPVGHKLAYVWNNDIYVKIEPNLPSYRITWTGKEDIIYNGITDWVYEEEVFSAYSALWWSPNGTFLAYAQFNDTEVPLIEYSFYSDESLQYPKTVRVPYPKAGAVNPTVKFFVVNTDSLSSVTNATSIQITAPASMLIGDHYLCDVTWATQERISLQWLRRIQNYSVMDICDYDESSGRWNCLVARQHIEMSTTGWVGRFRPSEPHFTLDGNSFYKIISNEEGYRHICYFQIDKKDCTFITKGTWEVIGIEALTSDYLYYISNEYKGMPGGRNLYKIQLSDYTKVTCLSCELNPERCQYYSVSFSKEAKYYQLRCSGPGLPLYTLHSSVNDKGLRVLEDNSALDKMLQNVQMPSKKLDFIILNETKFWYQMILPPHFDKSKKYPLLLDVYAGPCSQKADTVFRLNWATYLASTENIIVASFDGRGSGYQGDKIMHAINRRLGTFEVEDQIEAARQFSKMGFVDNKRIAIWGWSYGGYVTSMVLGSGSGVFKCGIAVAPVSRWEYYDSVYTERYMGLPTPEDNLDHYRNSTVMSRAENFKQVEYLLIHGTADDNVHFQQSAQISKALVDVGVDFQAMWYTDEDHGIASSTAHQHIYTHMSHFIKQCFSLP
readout: Ki (nM)
Hi! Could you send only the number? It should be in nM, unit omitted.

Task item: Quick one: Ki of N[C@H]1CC(C(=O)N2CCn3c(nnc3C(F)(F)F)C2)=CC[C@@H]1c1cc(F)c(F)cc1F ?
Reply: 1.3
